We begin with a simple list: items and their reported pEC50.
target: Human M4 (Homo sapiens, UniProt P08173); construct: expressed in transfected cells; assay: mAChR M4 cell-based functional assay (calcium flux, potentiation of EC20 acetylcholine response), hM4-Gqi5 CHO-K1 cells; conditions: Table 4; potentiation of EC20 acetylcholine response, calcium flux, CHO-K1 cells; read-out: Human M4 EC50
Sequence (P08173 whole entry): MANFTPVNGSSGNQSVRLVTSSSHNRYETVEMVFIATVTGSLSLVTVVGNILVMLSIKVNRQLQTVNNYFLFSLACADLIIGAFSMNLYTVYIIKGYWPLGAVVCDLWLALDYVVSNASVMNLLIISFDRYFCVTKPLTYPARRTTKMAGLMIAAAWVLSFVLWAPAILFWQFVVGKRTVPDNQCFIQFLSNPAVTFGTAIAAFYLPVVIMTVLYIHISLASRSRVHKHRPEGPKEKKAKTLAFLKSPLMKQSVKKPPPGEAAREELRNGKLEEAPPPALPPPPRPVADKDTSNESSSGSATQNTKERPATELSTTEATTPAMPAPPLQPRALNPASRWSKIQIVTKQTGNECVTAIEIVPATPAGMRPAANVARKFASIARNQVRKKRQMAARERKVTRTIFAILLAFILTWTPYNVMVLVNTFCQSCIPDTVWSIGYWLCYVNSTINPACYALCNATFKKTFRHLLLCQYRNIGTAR
pEC50: −log10 of the molar value.

{"Compound": "CCOC(=O)c1c(C)nc2cc(C)c(N3CCc4ncc(C(F)(F)F)cc4C3)nn12", "Test Target": "Human M4 (Homo sapiens, UniProt P08173)", "pEC50": 5.79}
{"Compound": "COCc1c(C)c(N2CCc3ncc(C(F)(F)F)cc3C2)nn2cnnc12", "Test Target": "Human M4 (Homo sapiens, UniProt P08173)", "pEC50": 5.29}
{"Compound": "Cc1ccc(-c2cnc3c(c2)CN(c2nn4cnnc4c(C)c2C2CC2)CC3)cn1", "Test Target": "Human M4 (Homo sapiens, UniProt P08173)", "pEC50": 6.10}
{"Compound": "Cc1cc2cncn2nc1N1CCc2ncc(C(F)(F)F)cc2C1", "Test Target": "Human M4 (Homo sapiens, UniProt P08173)", "pEC50": 6.37}
{"Compound": "[2H]C1([2H])Cc2ncc(Nc3ccncc3F)cc2C([2H])([2H])N1c1nn2cnnc2c(C)c1C", "Test Target": "Human M4 (Homo sapiens, UniProt P08173)", "pEC50": 8.52}
{"Compound": "Cc1c(N2CCc3ncc(Oc4cccc(F)c4F)cc3C2)nn2cnnc2c1C", "Test Target": "Human M4 (Homo sapiens, UniProt P08173)", "pEC50": 6.46}
{"Compound": "Cc1cc2nncn2nc1N1CCc2ncc(N3CCN(C)C(=O)C3)cc2C1", "Test Target": "Human M4 (Homo sapiens, UniProt P08173)", "pEC50": 5.59}
{"Compound": "c1cc2n(n1)CCCN2c1cnc2c(c1)CN(c1nn3cnnc3c3c1CCCC3)CC2", "Test Target": "Human M4 (Homo sapiens, UniProt P08173)", "pEC50": 6.26}
{"Compound": "Cc1c(N2CCc3ncc(Cc4ccccc4F)cc3C2)nn2cnnc2c1C", "Test Target": "Human M4 (Homo sapiens, UniProt P08173)", "pEC50": 6.96}
{"Compound": "Cc1c(C2CC2)c(N2CCc3ncc(C(F)(F)F)cc3C2)nn2cnnc12", "Test Target": "Human M4 (Homo sapiens, UniProt P08173)", "pEC50": 5.68}
{"Compound": "[2H]C1([2H])Cc2ncc(Nc3cccnc3C)cc2C([2H])([2H])N1c1nn2cnnc2cc1C", "Test Target": "Human M4 (Homo sapiens, UniProt P08173)", "pEC50": 6.45}
{"Compound": "Cc1cnccc1Nc1cnc2c(c1)CN(c1nn3cnnc3c(C)c1C)CC2", "Test Target": "Human M4 (Homo sapiens, UniProt P08173)", "pEC50": 6.95}
{"Compound": "Cc1c(N2Cc3cc(N4CCOCC4)cnc3C(C)C2)nn2cnnc2c1C (stereo not shown)", "Test Target": "Human M4 (Homo sapiens, UniProt P08173)", "pEC50": 6.15}
